Reference source: patent US20260297121A1

List of IC50 values.
# System: PC3
# ASSAY_PROTOCOL: IC50 in PC3 cells
# Format: cell-based
# SETTINGS: Homo sapiens, PC-3, read-out: IC50 PC2, Table 2; head prints PC2, text PC3
Provide only the numeric value, understood in nM.

COC(C(=NOCCNC(=O)c1cc2cc(Br)ccc2[nH]1)C(O)C(C)O)C1Cc2cc3cc(OC4CC(OC5CC(O)C(O)C(C)O5)C(O)C(C)O4)c(C)c(O)c3c(O)c2C(=O)C1OC1CC(OC2CC(OC3CC(C)(O)C(O)C(C)O3)C(O)C(C)O2)C(O)C(C)O1 (stereo not drawn)	20.6

Query: Query IC50 on PC3 for CO[C@H](C(=NOCc1ccc2scnc2c1)[C@@H](O)[C@@H](C)O)[C@@H]1Cc2cc3cc(O[C@H]4C[C@@H](O[C@H]5C[C@@H](O)[C@H](O)[C@@H](C)O5)[C@H](O)[C@@H](C)O4)c(C)c(O)c3c(O)c2C(=O)[C@H]1O[C@H]1C[C@@H](O[C@H]2C[C@@H](O[C@H]3C[C@](C)(O)[C@H](O)[C@@H](C)O3)[C@@H](O)[C@@H](C)O2)[C@H](O)[C@@H](C)O1
Result: 8.07

Query: And then CO[C@H](C(=NOCCNC(=O)c1cc2cc(OC(F)(F)F)ccc2[nH]1)[C@@H](O)[C@@H](C)O)[C@@H]1Cc2cc3cc(O[C@H]4C[C@@H](O[C@H]5C[C@@H](O)[C@H](O)[C@@H](C)O5)[C@H](O)[C@@H](C)O4)c(C)c(O)c3c(O)c2C(=O)[C@H]1O[C@H]1C[C@@H](O[C@H]2C[C@@H](O[C@H]3C[C@](C)(O)[C@H](O)[C@@H](C)O3)[C@@H](O)[C@@H](C)O2)[C@H](O)[C@@H](C)O1 , what is it?
Result: 10.7

----------
# Test system: PC3
# ASSAY_PROTOCOL: IC50 in PC3 cells
# Type: cell-based
# SETTINGS: Homo sapiens, PC-3, read-out: IC50 PC2, Table 2; head prints PC2, text PC3
pIC50: −log10 of the molar value.
Kindly return class 1 if reported pIC50 is no lower than 7; return class 0 if it is lower.

// known answers, use as guide
COC(C(=NOCCNC(=O)c1[nH]c2ccc(Cl)cc2c1-c1cccs1)C(O)C(C)O)C1Cc2cc3cc(OC4CC(OC5CC(O)C(O)C(C)O5)C(O)C(C)O4)c(C)c(O)c3c(O)c2C(=O)C1OC1CC(OC2CC(OC3CC(C)(O)C(O)C(C)O3)C(O)C(C)O2)C(O)C(C)O1 (stereo not drawn) [YL-C106]	class 0
CO[C@H](C(=NOCCNC(=O)c1[nH]c2ccc(Cl)cc2c1-c1ccc(Cl)cc1)[C@@H](O)[C@@H](C)O)[C@@H]1Cc2cc3cc(O[C@H]4C[C@@H](O[C@H]5C[C@@H](O)[C@H](O)[C@@H](C)O5)[C@H](O)[C@@H](C)O4)c(C)c(O)c3c(O)c2C(=O)[C@H]1O[C@H]1C[C@@H](O[C@H]2C[C@@H](O[C@H]3C[C@](C)(O)[C@H](O)[C@@H](C)O3)[C@@H](O)[C@@H](C)O2)[C@H](O)[C@@H](C)O1 [YL-C82]	class 0
CO[C@H](C(=NOCCNC(=O)c1cc2cc(Cl)cc(Cl)c2[nH]1)[C@@H](O)[C@@H](C)O)[C@@H]1Cc2cc3cc(O[C@H]4C[C@@H](O[C@H]5C[C@@H](O)[C@H](O)[C@@H](C)O5)[C@H](O)[C@@H](C)O4)c(C)c(O)c3c(O)c2C(=O)[C@H]1O[C@H]1C[C@@H](O[C@H]2C[C@@H](O[C@H]3C[C@](C)(O)[C@H](O)[C@@H](C)O3)[C@@H](O)[C@@H](C)O2)[C@H](O)[C@@H](C)O1 [YL-B167]	class 1
CO[C@H](C(=NOCCNC(=O)c1nnc2nc(C)cc(C)n12)[C@@H](O)[C@@H](C)O)[C@@H]1Cc2cc3cc(O[C@H]4C[C@@H](O[C@H]5C[C@@H](O)[C@H](O)[C@@H](C)O5)[C@H](O)[C@@H](C)O4)c(C)c(O)c3c(O)c2C(=O)[C@H]1O[C@H]1C[C@@H](O[C@H]2C[C@@H](O[C@H]3C[C@](C)(O)[C@H](O)[C@@H](C)O3)[C@@H](O)[C@@H](C)O2)[C@H](O)[C@@H](C)O1 [YL-B162]	class 0
COC(C(=NOCc1[nH]c2ccc(Cl)cc2c1-c1ccccc1)C(O)C(C)O)C1Cc2cc3cc(OC4CC(OC5CC(O)C(O)C(C)O5)C(O)C(C)O4)c(C)c(O)c3c(O)c2C(=O)C1OC1CC(OC2CC(OC3CC(C)(O)C(O)C(C)O3)C(O)C(C)O2)C(O)C(C)O1 (stereo not drawn) [YL-C51]	class 0

# ---- query molecule ----
Query: Check if pIC50 >= 7 (inclusive). Item: CO[C@H](C(=NOCCNC(=O)c1ccc2scnc2c1)[C@@H](O)[C@@H](C)O)[C@@H]1Cc2cc3cc(O[C@H]4C[C@@H](O[C@H]5C[C@@H](O)[C@H](O)[C@@H](C)O5)[C@H](O)[C@@H](C)O4)c(C)c(O)c3c(O)c2C(=O)[C@H]1O[C@H]1C[C@@H](O[C@H]2C[C@@H](O[C@H]3C[C@](C)(O)[C@H](O)[C@@H](C)O3)[C@@H](O)[C@@H](C)O2)[C@H](O)[C@@H](C)O1 [YL-C61]
Result: class 0

----------
# ASSAY_PROTOCOL: log P
# Assay type: physicochemical
# SETTINGS: Table 2
ENDPOINT_NAME: log P
Lab note: write the figure by itself, no unit.

Query: Recorded log P of COC(C(=NOCCNC(=O)c1[nH]c2ccc(Cl)cc2c1-c1ccc(F)c(Cl)c1)C(O)C(C)O)C1Cc2cc3cc(OC4CC(OC5CC(O)C(O)C(C)O5)C(O)C(C)O4)c(C)c(O)c3c(O)c2C(=O)C1OC1CC(OC2CC(OC3CC(C)(O)C(O)C(C)O3)C(O)C(C)O2)C(O)C(C)O1 (stereo not shown) [YL-C116] , please.
Result: 4.19

----------
# Test system: PC3
# ASSAY_PROTOCOL: IC50 in PC3 cells
# Assay type: cell-based
# SETTINGS: Homo sapiens, PC-3, read-out: IC50 PC2, Table 2; head prints PC2, text PC3
ENDPOINT_NAME: IC50
Give me the value, and tack the unit on after it.

// solved cases for IC50 follow
COC(C(=NOCC(=O)Nc1cccc2cnccc12)C(O)C(C)O)C1Cc2cc3cc(OC4CC(OC5CC(O)C(O)C(C)O5)C(O)C(C)O4)c(C)c(O)c3c(O)c2C(=O)C1OC1CC(OC2CC(OC3CC(C)(O)C(O)C(C)O3)C(O)C(C)O2)C(O)C(C)O1 (centres unmarked)	1130 nM
CO[C@H](C(=NOCCNC(=O)c1[nH]c2ccc(Cl)cc2c1-c1cnoc1)[C@@H](O)[C@@H](C)O)[C@@H]1Cc2cc3cc(O[C@H]4C[C@@H](O[C@H]5C[C@@H](O)[C@H](O)[C@@H](C)O5)[C@H](O)[C@@H](C)O4)c(C)c(O)c3c(O)c2C(=O)[C@H]1O[C@H]1C[C@@H](O[C@H]2C[C@@H](O[C@H]3C[C@](C)(O)[C@H](O)[C@@H](C)O3)[C@@H](O)[C@@H](C)O2)[C@H](O)[C@@H](C)O1	40.3 nM
CO[C@H](C(=NOCCNC(=O)c1cc2cc(Cl)ccc2[nH]1)[C@@H](O)[C@@H](C)O)[C@@H]1Cc2cc3cc(O[C@H]4C[C@@H](O[C@H]5C[C@@H](O)[C@H](O)[C@@H](C)O5)[C@H](O)[C@@H](C)O4)c(C)c(O)c3c(O)c2C(=O)[C@H]1O[C@H]1C[C@@H](O[C@H]2C[C@@H](O[C@H]3C[C@](C)(O)[C@H](O)[C@@H](C)O3)[C@@H](O)[C@@H](C)O2)[C@H](O)[C@@H](C)O1	17.6 nM
COC(C(=NOCCNC(=O)c1cc2c(=O)n(C)c(=O)n(C)c2[nH]1)C(O)C(C)O)C1Cc2cc3cc(OC4CC(OC5CC(O)C(O)C(C)O5)C(O)C(C)O4)c(C)c(O)c3c(O)c2C(=O)C1OC1CC(OC2CC(OC3CC(C)(O)C(O)C(C)O3)C(O)C(C)O2)C(O)C(C)O1 (centres unmarked)	3000 nM

Next, consider the following compound.
Query: Recorded IC50 of COc1ccc2[nH]c(C(=O)NCCON=C([C@@H](O)[C@@H](C)O)[C@@H](OC)[C@@H]3Cc4cc5cc(O[C@H]6C[C@@H](O[C@H]7C[C@@H](O)[C@H](O)[C@@H](C)O7)[C@H](O)[C@@H](C)O6)c(C)c(O)c5c(O)c4C(=O)[C@H]3O[C@H]3C[C@@H](O[C@H]4C[C@@H](O[C@H]5C[C@](C)(O)[C@H](O)[C@@H](C)O5)[C@@H](O)[C@@H](C)O4)[C@H](O)[C@@H](C)O3)cc2c1 , please.
Result: 32.3 nM
